Please provide measured pEC50 for the entries that follow.
Target: T1, cynomolgus monkey CD40 on cells (cynomolgus monkey, UniProt G7PG38 21-278)
T1 construct: also called cyCD40; CHO-K1/cyCD40
T1 sequence (G7PG38 entry or part of it limits assumed): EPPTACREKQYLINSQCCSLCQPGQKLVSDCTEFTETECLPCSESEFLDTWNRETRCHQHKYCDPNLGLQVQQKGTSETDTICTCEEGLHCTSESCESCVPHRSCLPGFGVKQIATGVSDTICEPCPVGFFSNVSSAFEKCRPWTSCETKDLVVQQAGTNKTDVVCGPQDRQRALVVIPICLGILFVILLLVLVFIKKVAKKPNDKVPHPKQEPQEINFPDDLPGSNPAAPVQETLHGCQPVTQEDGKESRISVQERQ
Test: FACS, CHO-K1/cyCD40 cells
pEC50 is a log-scale quantity: -log10 of the concentration expressed in molar.

Dear colleague, I am looking for the recorded pEC50 of the following binder: PR006497 (antibody, human IgG1, kappa, V domains shown, PR003379 variant L:N92Y; human IgG1 L234A, L235A, G237A) VH: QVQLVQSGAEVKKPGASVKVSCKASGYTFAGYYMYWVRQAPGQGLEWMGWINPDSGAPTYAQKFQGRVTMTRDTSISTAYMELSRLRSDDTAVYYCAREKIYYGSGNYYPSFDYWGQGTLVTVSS VL: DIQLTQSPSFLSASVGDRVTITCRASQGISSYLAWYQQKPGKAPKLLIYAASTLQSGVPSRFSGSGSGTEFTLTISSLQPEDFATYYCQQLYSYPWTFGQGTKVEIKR
8.45

Dear colleague, I am looking for the recorded pEC50 of the following binder: PR006503 (antibody, human IgG1, kappa, V domains shown, PR003379 variant L:N92G; human IgG1 L234A, L235A, G237A) VH: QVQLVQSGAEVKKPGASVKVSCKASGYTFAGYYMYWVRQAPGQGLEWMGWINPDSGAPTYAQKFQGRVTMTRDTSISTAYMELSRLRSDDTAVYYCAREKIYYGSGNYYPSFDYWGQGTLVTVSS VL: DIQLTQSPSFLSASVGDRVTITCRASQGISSYLAWYQQKPGKAPKLLIYAASTLQSGVPSRFSGSGSGTEFTLTISSLQPEDFATYYCQQLGSYPWTFGQGTKVEIKR
8.40

Dear colleague, I am looking for the recorded pEC50 of the following binder: PR006514 (antibody, human IgG1, kappa, V domains shown, PR003379 variant L:S93V; human IgG1 L234A, L235A, G237A) VH: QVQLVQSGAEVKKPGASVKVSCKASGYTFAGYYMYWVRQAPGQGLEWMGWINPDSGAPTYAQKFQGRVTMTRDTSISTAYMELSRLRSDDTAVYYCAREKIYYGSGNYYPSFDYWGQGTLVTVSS VL: DIQLTQSPSFLSASVGDRVTITCRASQGISSYLAWYQQKPGKAPKLLIYAASTLQSGVPSRFSGSGSGTEFTLTISSLQPEDFATYYCQQLNVYPWTFGQGTKVEIKR
8.37
